Tested on: MCF7
Experiment: Antiproliferative activity against human MCF7 cells at 100 uM after 72 hrs by WST1 assay
Type: functional
Cut-off 70% on Activity, inclusive. At or above means rule met; below means rule not met.

Problem: Is Activity at least 70%? Consider CC(c1ccccc1)N1COc2cc3c(cc2C1)c1ccccc1n3C (stereo unspecified)
Result: rule not met

Problem: Tell me whether Activity is at least 70% here: CCn1c2ccccc2c2c3c(ccc21)CN(Cc1ccccc1)CO3
Result: rule not met

Problem: Does the compound Cn1c2ccccc2c2c3c(ccc21)CN(c1ccccc1)CO3 have recorded Activity that is 70% or more?
Result: rule met

Problem: Decide: Activity of CC(c1ccccc1)N1COc2c(ccc3c2c2ccccc2n3C)C1 (stereo unspecified) >= 70%?
Result: rule met

Problem: Hi, just wondering whether C=CCn1c2ccccc2c2c3c(ccc21)CN(Cc1ccc(C)cc1)CO3 shows Activity of 70% or higher.
Result: rule not met

Problem: Has Cc1ccc(CN2COc3ccc4c5ccccc5n(C)c4c3C2)cc1 a recorded Activity greater than or equal to 70%?
Result: rule not met
